target: beta-hexosaminidase HsHex (Homo sapiens); test: Inhibition of human beta-N-acetylhexosaminidase using p-nitrophenyl glycoside as substrate by spectrometric method
ASSAY READOUT: pKi
Numbers only, as −log10 of the molar value.

Enter reported pKi observed with beta-hexosaminidase HsHex (Homo sapiens) for O=C1c2cccc3cccc(c23)C(=O)N1CCNCCN1C(=O)c2cccc3cccc(c23)C1=O
5.49
